B1: Tyrosine-protein kinase BTK, residues 215 to 273; numbered along this chain, Q06187 (parent)
chain: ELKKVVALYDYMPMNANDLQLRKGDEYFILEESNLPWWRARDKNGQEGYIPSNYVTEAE

variants of: B1; assay: abundance fitness (aPCA) (normalised: wild type 0, dead -1); higher = more abundant; growth selection in yeast, the domain comes from the species named; conditions: Homo sapiens
Reported abundance fitness values for a set of variants
Reply with just the number.

For orientation, consider the following solved cases.
>>> print(df.to_string())
   mutations            measure  readoutnumber
0       I29Y  abundance fitness          -1.02
1       G48M  abundance fitness         -0.946

Recorded abundance fitness of P51F , please. -0.054

Recorded abundance fitness of L21M , please. -0.079

# input variant: G45N ; wanted: its abundance fitness 0.008

Field request: abundance fitness | item: N53Q -0.041

Which measured abundance fitness value corresponds to E59D ? -0.128

Entry R41Y has what abundance fitness? -0.234

Looking for the measured abundance fitness of G24A , can you help? -0.252

Quick check: abundance fitness of W38N ? -0.098

What value of measured abundance fitness is listed for L35V ? -0.017
